pIC50: −log10 of the molar value.
The reader will find pIC50 measurements below, all made with Voltage-gated inwardly rectifying potassium channel KCNH2 (Homo sapiens).
Sequence (Q12809 whole entry): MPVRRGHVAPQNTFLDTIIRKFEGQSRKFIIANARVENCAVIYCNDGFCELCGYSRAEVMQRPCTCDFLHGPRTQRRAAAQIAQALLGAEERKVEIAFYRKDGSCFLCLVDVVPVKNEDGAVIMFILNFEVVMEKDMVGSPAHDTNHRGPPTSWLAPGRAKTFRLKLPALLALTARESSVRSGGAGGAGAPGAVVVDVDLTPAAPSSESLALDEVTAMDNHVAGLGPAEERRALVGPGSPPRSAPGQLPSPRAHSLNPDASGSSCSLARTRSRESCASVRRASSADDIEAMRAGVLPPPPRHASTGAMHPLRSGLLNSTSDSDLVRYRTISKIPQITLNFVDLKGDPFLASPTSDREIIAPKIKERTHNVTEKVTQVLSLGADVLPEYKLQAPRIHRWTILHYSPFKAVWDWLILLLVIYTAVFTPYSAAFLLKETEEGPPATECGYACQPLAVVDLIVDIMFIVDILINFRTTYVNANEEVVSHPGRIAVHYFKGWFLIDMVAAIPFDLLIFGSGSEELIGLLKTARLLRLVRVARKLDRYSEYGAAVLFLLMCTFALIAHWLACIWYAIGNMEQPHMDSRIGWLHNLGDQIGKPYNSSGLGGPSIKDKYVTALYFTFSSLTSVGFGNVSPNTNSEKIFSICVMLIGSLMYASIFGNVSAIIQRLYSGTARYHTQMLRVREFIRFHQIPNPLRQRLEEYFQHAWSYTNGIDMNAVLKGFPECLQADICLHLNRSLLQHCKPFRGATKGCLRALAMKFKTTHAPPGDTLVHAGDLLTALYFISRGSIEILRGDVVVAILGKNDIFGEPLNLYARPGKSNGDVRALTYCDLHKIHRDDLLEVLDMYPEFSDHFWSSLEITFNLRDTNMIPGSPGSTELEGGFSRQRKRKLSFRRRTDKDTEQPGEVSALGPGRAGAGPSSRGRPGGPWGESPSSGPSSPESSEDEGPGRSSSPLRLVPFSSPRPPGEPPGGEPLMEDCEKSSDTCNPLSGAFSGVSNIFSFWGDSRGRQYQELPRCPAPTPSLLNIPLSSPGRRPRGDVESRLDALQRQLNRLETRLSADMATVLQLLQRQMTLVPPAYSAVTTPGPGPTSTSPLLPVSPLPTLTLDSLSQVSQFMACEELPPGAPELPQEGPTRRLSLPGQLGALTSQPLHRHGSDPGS

Use the examples below as a reference point.
SMILES REPRESENTATION | pIC50
CCOc1ccc2cc(-c3nn(CC4CCN(C(C)=O)CC4)c4ncnc(N)c34)ccc2c1 | < 5.00
CCOc1ccc2cc(-c3nn(CC4CN(C(C)=O)C4)c4ncnc(N)c34)ccc2c1 | < 5.00
Nc1ncnc2c1c(-c1ccc3cc(OC4CC4)ccc3c1)nn2CC1CCOCC1 | < 5.00
CCOc1ccc2cc(-c3nn(CC4CCOCC4)c4ncnc(N)c34)ccc2c1 | < 5.00
CC(C)Cn1nc(-c2ccc3cc(OC4CC4)ccc3c2)c2c(N)ncnc21 | < 5.00

Give recorded pIC50 with Voltage-gated inwardly rectifying potassium channel KCNH2 (Homo sapiens) for the following compound: CCOc1ccc2cc(-c3nn(CC4CNC4)c4ncnc(N)c34)ccc2c1
5.77

Observed pIC50 on Voltage-gated inwardly rectifying potassium channel KCNH2 (Homo sapiens) for CCOc1ccc2cc(-c3nn(CC4CN(C)C4)c4ncnc(N)c34)ccc2c1 , please.
5.85

---

Quick note: these are IC50 numbers for system: UniProtKB Q12809

// worked examples, IC50 included
SMILES REPRESENTATION | IC50
Nc1ncnc2c1c(-c1ccc3nc(OC4CC4)ccc3c1)nn2CC1CCOCC1 | > 10 µM
CCOc1ccc2cc(-c3nn(CC4CCOCC4)c4ncnc(N)c34)ccc2n1 | > 10 µM

Query molecule follows.
Form field: reported IC50 of CC(C)(CO)Cn1nc(-c2ccc3cc(OC4CC4)ccc3c2)c2c(N)ncnc21
> 10 µM

---

The compounds below have reported IC50 for Voltage-gated inwardly rectifying potassium channel KCNH2 (Homo sapiens, UniProt Q12809).
Dear colleague, please return just the value in nM, with no unit written.

Solved cases below.
SMILES REPRESENTATION | IC50 (nM)
CN1CCC(Cn2nc(-c3ccc4nc(OCC(F)(F)F)ccc4c3)c3c(N)ncnc32)CC1 | 500
CN(C)CC(C)(C)Cn1nc(-c2ccc3nc(OC4CC4)ccc3c2)c2c(N)ncnc21 | 82
CN1CCC(Cn2nc(-c3ccc4nc(OC5CC5)ccc4c3)c3c(N)ncnc32)CC1 | 1700

Quick check: IC50 on Voltage-gated inwardly rectifying potassium channel KCNH2 (Homo sapiens, UniProt Q12809), item CN1CCC(Cn2nc(-c3ccc4cc(OCC5CC5)ccc4c3)c3c(N)ncnc32)CC1 ?
900
